Could you please report measured IC50 for the items listed next?
# Target: hormone-sensitive lipase HSL (Rattus norvegicus)
# Construct: Isolated rat fat cells are obtained from epididymal fatty tissue from untreated male rats
# Sequence (P15304 301-1068 limits assumed): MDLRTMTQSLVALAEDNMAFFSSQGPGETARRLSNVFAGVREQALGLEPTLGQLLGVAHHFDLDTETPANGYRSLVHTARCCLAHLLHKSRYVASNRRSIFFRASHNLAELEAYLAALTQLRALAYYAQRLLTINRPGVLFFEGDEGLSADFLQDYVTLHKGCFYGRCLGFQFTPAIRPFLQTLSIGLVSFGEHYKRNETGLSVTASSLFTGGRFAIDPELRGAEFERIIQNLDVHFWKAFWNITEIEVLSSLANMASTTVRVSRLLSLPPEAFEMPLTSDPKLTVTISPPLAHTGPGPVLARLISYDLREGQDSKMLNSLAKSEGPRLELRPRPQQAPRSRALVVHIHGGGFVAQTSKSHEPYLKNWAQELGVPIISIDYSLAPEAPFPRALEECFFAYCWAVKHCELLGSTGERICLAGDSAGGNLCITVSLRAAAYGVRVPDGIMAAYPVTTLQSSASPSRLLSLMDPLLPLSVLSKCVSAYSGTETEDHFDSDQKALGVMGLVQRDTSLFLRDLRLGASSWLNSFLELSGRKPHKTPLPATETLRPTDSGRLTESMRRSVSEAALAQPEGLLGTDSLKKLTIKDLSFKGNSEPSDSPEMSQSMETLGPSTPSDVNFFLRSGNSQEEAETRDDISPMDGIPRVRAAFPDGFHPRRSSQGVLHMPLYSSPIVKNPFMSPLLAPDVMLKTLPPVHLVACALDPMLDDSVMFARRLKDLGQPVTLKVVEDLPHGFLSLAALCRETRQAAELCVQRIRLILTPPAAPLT
# Test Method Notes: HSL enzyme test system ([3H]trioleoylglycerol hydrolysis)
# Settings: partially purified HSL from rat fat cells; [3H]trioleoylglycerol substrate; 37° C., 30 min

The compound listed as COc1nn(-c2cccc(OC3CC(C)(C)CC(C)(C)C3)c2)c(=O)o1 shows IC50 equal to < 1 µM

The compound listed as COc1nn(-c2ccc(Oc3ccccc3)cc2)c(=O)o1 shows IC50 equal to 2 µM

The compound listed as CCOc1nn(-c2cccc(OCc3ccccc3)c2)c(=O)o1 shows IC50 equal to < 1 µM

The compound listed as O=c1oc(OCc2ccccc2)nn1-c1ccc(OC(F)(F)F)cc1 shows IC50 equal to 50 µM

The compound listed as CCOc1nn(-c2ccc(S(=O)(=O)N3CCOCC3)cc2)c(=O)o1 shows IC50 equal to 15 µM

====

# Target: hormone-sensitive lipase HSL (Rattus norvegicus)
# Construct: Isolated rat fat cells are obtained from epididymal fatty tissue from untreated male rats
# Test Method Notes: HSL enzyme test system ([3H]trioleoylglycerol hydrolysis)
# Settings: partially purified HSL from rat fat cells; [3H]trioleoylglycerol substrate; 37° C., 30 min
# Protocol: The activity of the compounds of the formula 1 according to the invention was examined using the following enzyme test system: […] Substances are customarily tested in four independent batches. The inhibition of the enzymatic activity of the HSL by a test substance is determined by comparison with an uninhibited control reaction. The IC50 value is calculated by means of an inhibition curve using at least 10 concentrations of the test substance. […]
Observation Type: IC50 (µM)
Give the value, in units of µM, as a plain number.

The molecule listed as CCOc1nn(-c2ccc(OC3CC(C)(C)CC(C)(C)C3)cc2)c(=O)o1 [Example 16] shows IC50 equal to 2

The molecule listed as CCOc1nn(-c2cccc(Oc3ccccc3)c2)c(=O)o1 [Example 34] shows IC50 equal to 3

The molecule listed as COc1nn(-c2ccc(OC(F)(F)F)cc2)c(=O)o1 [Example 10] shows IC50 equal to 6

The molecule listed as CCOc1nn(-c2cccc(OC(F)(F)F)c2)c(=O)o1 [Example 19] shows IC50 equal to 5

The molecule listed as COc1nn(-c2ccc(S(=O)(=O)NC3CC(C)CC(C)(C)C3)cc2)c(=O)o1 (stereo not shown) [Example 15] shows IC50 equal to 2

The molecule listed as CC(C)Oc1nn(-c2ccc(OC(F)(F)F)cc2)c(=O)o1 [Example 12] shows IC50 equal to 10

The molecule listed as CCCCOc1nn(-c2ccc(OC(F)(F)F)cc2)c(=O)o1 [Example 13] shows IC50 equal to 10

The molecule listed as COc1nn(-c2ccc(C3CCCCC3)cc2)c(=O)o1 [Example 37] shows IC50 equal to 3

The molecule listed as COc1nn(-c2cccc(OCc3ccccc3)c2)c(=O)o1 [Example 17] shows IC50 equal to 2

The molecule listed as COc1nn(-c2cccc(Oc3ccccc3)c2)c(=O)o1 [Example 33] shows IC50 equal to 4

The molecule listed as COc1nn(-c2ccc(-c3ccccc3)cc2)c(=O)o1 [Example 39] shows IC50 equal to 60

The molecule listed as CCOc1nn(-c2ccc(OC(F)(F)F)cc2)c(=O)o1 [Example 11] shows IC50 equal to 10

The molecule listed as CC(C)Oc1nn(-c2cccc(Oc3ccccc3)c2)c(=O)o1 [Example 35] shows IC50 equal to 3
